target: T1, HLA-A*0201 loaded with the Carcinoembryonic antigen (CEA)-derived … peptide (biotin on the C-terminal biotinylation tag); assay: Biacore SPR
T1 construct: Soluble, biotinylated, immobilised on a streptavidin chip
What koff was measured for each of the following?

Measured koff, SEQ ID NO 77 (receptor, mutated soluble two domain ILT-2) MGHLPKPTLWAEPGSVITQGSPVTLRCQGGQETQEYRLYREKKTAPWITRIPQELVKKGQFPIPSITWEHAGRYRCMQYTLTAGRSESSDPLELVVTGAYIKPTLSAQPSPVVNSGGNVTLQCDSQVAFDGFILCKEGEDEHPQCLNSQPHARGSSRAIFSVGPVSPSRRWWYRCYAYDSNSPYEWSLPSDLLELLVL : ≤ 2 s⁻¹

Measured koff, SEQ ID NO 80 (receptor, mutated soluble two domain ILT-2) MGHLPKPTLWAEPGSVITMDQPVTLRCQGGQETQEYRLYREKKTAPWITRIPQELVKKGQFPIPSITWEHAGRYRCVIQRGTAGRSESSDPLELVVTGVYIKPTLSAQPSPVVNSGGNVTLQCDSQVAFDGFILCKEGEDEHPQCLNSQPHARGSSRAIFSVGPVSPSRRWWYRCYAYDSNSPYEWSLPSDLLELLVL : ≤ 2 s⁻¹

Measured koff, SEQ ID NO 81 (receptor, mutated soluble two domain ILT-2) MGHLPKPTLWAEPGSVITMDQPVTLRCQGGQETQEYRLYREKKTAPWITRIPQELVKKGQFPIPSITWEHAGRYRCMQYTLTAGRSESSDPLELVVTGVYIKPTLSAQPSPVVNSGGNVTLQCDSQVAFDGFILCKEGEDEHPQCLNSQPHARGSSRAIFSVGPVSPSRRWWYRCYAYDSNSPYEWSLPSDLLELLVL : ≤ 2 s⁻¹
